- PROCEDURE_TEXT: recrystallization to monohydrate of CV-8972, water content by KF
- Type: physicochemical
- DETAILS: recrystallized monohydrate of CV-8972, MeOH:MEK with water; theoretical 3.32%
PARAMETER_MEASURED: KF result (Sample after drying at 40° C. for 24 hours) (%)
Numeric only. Scale: %

COc1ccc(CN2CCN(CCOC(=O)c3cccnc3)CC2)c(OC)c1OC.Cl.Cl.Cl.O [Sample 289-MBA-29]; 0.89
COc1ccc(CN2CCN(CCOC(=O)c3cccnc3)CC2)c(OC)c1OC.Cl.Cl.Cl.O [Sample 289-MBA-30]; 3.51
COc1ccc(CN2CCN(CCOC(=O)c3cccnc3)CC2)c(OC)c1OC.Cl.Cl.Cl.O [Sample 289-MBA-26]; 3.75
COc1ccc(CN2CCN(CCOC(=O)c3cccnc3)CC2)c(OC)c1OC.Cl.Cl.Cl.O [Sample 289-MBA-31]; 3.30

Recorded KF result (Sample after drying at 40° C. for 24 hours) (molecule COc1ccc(CN2CCN(CCOC(=O)c3cccnc3)CC2)c(OC)c1OC.Cl.Cl.Cl.O [Sample 289-MBA-27] ): 3.54

Hey, just so you know, these numbers are from patent US20220226313A1.
